- Protocol description: differential killing of epithelial or mesenchymal cells, primary screen, imaging, PC-3E GFP, TEM4-18 mCherry, co-culture (AID 1345086);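 also: cells exposed to compound for 72 h before imaging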
- Condition summary: imaging cell counts, measured here: epithelial PC-3E GFP cell survival, at 1 µM
Readout type: normalised cell number
Number only, please.

Known normalised cell number results, listed for orientation:
CC1CCC2(OC1)OC1CC3C4CC[C@H]5C[C@@H](O)CC[C@]5(C)C4CC(=O)[C@]3(C)C1C2C (stereo partly drawn): 1.02
COc1ccc(-c2oc3cc(OC)c(OC)c(OC)c3c(=O)c2OC)cc1: 1.02

## Task Using known records, supply normalised cell number for CO[C@H]1/C=C/C[C@@H](C)OC(=O)c2c(O)cc(O)cc2CC(=O)CCC1
## Result 0.98

* * *

- Tested on: R275C/beta1
- Protocol description: modulators of BK channel variants, profiling panel, selectivity assay, cell-based, U2OS BacMam, thallium flux, beta subunits (AID 1259406);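 also: initial slope of Thallos dye fluorescence rise after thallium is added; log ratio against the mean of 0.3% DMSO vehicle wells on the same plate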
- Condition summary: at 30 µM
Threshold check on log fold change Tl+ flux: strictly below -0.02 is Fulfilled; on or above -0.02 is Not fulfilled.

Cc1cc(C)c(C(=O)O)c(CC(C)(C)C(=O)O)c1: Not fulfilled
C[C@H]1O[C@@H](O[C@H]2[C@@H](O)C[C@H](O[C@H]3[C@@H](O)C[C@H](O[C@H]4CC[C@@]5(C)[C@H](CC[C@@H]6[C@@H]5C[C@@H](O)[C@]5(C)C(C7=CC(=O)OC7)CC[C@]65O)C4)O[C@@H]3C)O[C@@H]2C)C[C@H](O)[C@@H]1O (stereo not given in full): Not fulfilled
Cc1ccc(S(N)(=O)=O)c(I)c1: Not fulfilled

## Task I wonder whether N#Cc1ccc(NCCc2ccccn2)c([N+](=O)[O-])c1 has log fold change Tl+ flux below -0.02. Can you tell?
## Result Fulfilled

## Task Strictly below -0.02: is that where log fold change Tl+ flux of O=C1c2cccc3c(Sc4ccccc4)ccc(c23)C(=O)N1CCc1ccccn1 sits?
## Result Fulfilled

* * *

- Protocol description: growth inhibition of DIPG glioma cells, dose response, cell-based, JHH-DIPG-1, MIPE4.0, CellTiter-Glo, qHTS (AID 1347062);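 as to AC50: cells exposed to compound for two days before readout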
- Condition summary: JHH-DIPG-1 viability, CellTiter-Glo ATP luminescence
Results filed as inconclusive are left out. Active and inactive are the calls of the source. Cut-off not given; nearly all actives show AC50 up to about 27 µM.
Readout type: AC50

Sample records with AC50:
O=Nc1c(-c2c(O)[nH]c3cc(Br)ccc23)[nH]c2ccccc12: 20.9 µM (active)
COc1ccc([C@@H]2CNC(=O)C2)cc1OC1CCCC1: inactive
O=C1Nc2ccc(I)cc2/C1=C/c1cc(Br)c(O)c(Br)c1: inactive
O=c1[nH]c(-c2ccc(C(F)(F)F)cc2)nc2c1CSCC2: inactive
COc1nccc(-c2c(-c3ccc(F)cc3)ncn2C2CCC(O)CC2)n1 (configuration not stated): inactive
CCN(CC)CCOc1ccc(Nc2ncc3cc(-c4c(Cl)cccc4Cl)c(=O)n(C)c3n2)cc1: 2.96 µM (active)

## Task Tell me its AC50 given Cc1cnc(C(=O)NCCc2ccc(S(=O)(=O)NC(=O)NC3CCCCC3)cc2)cn1 as the entry.
## Result inactive

## Task For the compound COc1ccc(-c2oc3cc(OC)ccc3c2C(=O)c2ccc(C#N)cc2)cc1 , give its measured AC50 value.
## Result inactive

## Task Item CC[C@H](NC(C)C)[C@H](O)c1ccc(O)c2[nH]c(=O)ccc12 : provide AC50
## Result inactive

## Task Return reported AC50. Input compound: CC(Cc1ccc(O)c(O)c1)(NN)C(=O)O (configuration not stated)
## Result inactive

## Task For the compound CC[C@@]1(O)C(=O)OCc2c1cc1n(c2=O)Cc2cc3cc(O)ccc3nc2-1 , report AC50.
## Result 1.87 µM (active)

## Task Quote AC50 reported for Cc1cc(NC(=O)Nc2ccc(N(C)C)cc2)c2cc(F)cc(F)c2n1 please.
## Result inactive

## Task Annotate the compound Nc1ncnc2c1ncn2[C@@H]1O[C@H](CO)C[C@H]1O with its measured AC50.
## Result inactive

## Task Quote AC50 reported for CC(C)C[C@H](NC(=O)[C@@H](O)[C@H](N)Cc1ccccc1)C(=O)O please.
## Result inactive

## Task Specify reported AC50 for the compound shown: O=C(O)c1ccc2cc(-c3ccc(O)c(C45CC6CC(CC(C6)C4)C5)c3)ccc2c1
## Result 5.26 µM (active)

## Task Query AC50 for CC1=C(C(=O)O)N2C(=O)[C@@H](NC(=O)C(N)c3ccccc3)[C@H]2SC1 (some centres not stated)
## Result inactive

* * *

Reported values of inhibition of aggregation for individual entries
- Protocol description: inhibitors of polyQ protein aggregation (AID 1604)
- Condition summary: polyglutamine-induced protein aggregation inhibition assay; stronger effect = higher value; concentration not given here
Respond with the bare value in %.

C[C@H]1CC2C([C@@H](O)C[C@@]3(C)C2CC[C@]3(O)C(=O)CO)[C@@]2(C)C=CC(=O)C=C12 (stereo partly drawn): 83.1
C[C@]12C=CC(=O)C=C1CCC1C2[C@@H](O)C[C@@]2(C)C1CC[C@]2(O)C(=O)CO (stereo partly drawn): 70.5
CC(=O)OCC(=O)[C@@]1(O)CCC2C3CCC4=CC(=O)C=CC4(C)C3[C@@H](O)C[C@@]21C (stereo partly drawn): 51

## Task Fill in reported inhibition of aggregation for this entry: CC(COc1ccccc1)NC(C)[C@H](O)c1ccc(O)cc1 (stereo partly drawn)
## Result 67.5

## Task Input CO[C@@]12[C@@H]3NC3CN1C1=C(C(=O)C(N)=C(C)C1=O)[C@@H]2COC(N)=O (stereo partly drawn) , output reported inhibition of aggregation.
## Result 29.2

## Task Kindly indicate its recorded inhibition of aggregation. Item: CN1C2CC[C@@H]1CC(OC(=O)[C@H](CO)c1ccccc1)C2 (stereo partly drawn)
## Result 89.7

## Task Complete the entry with inhibition of aggregation for N.N.O=C(O)C1(C(=O)O)CCC1.[Pt]
## Result 37.7

## Task Quickly give me recorded inhibition of aggregation for Cc1c(C)c2c(c(C)c1O)CCC(C)(CCCC(C)CCCC(C)CCCC(C)C)O2 (stereo not drawn)
## Result 78.9

* * *

- Protocol description: viability rescue of complex I mutant cybrids, primary screen, cell-based, galactose medium, ATP luminescence (AID 1645843);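 also: positive z means more ATP and so rescue of galactose-driven cybrid death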
- Condition summary: complex I mutant cybrid cells, 72 h, stronger effect = higher value
Catalogue of compounds with associated z-score
Lab note: jot the number down without any unit.

Below are worked cases with known answers.
CCCCC(=O)OC1(C(=O)CO)CCC2C3CCC4=CC(=O)CCC4(C)C3C(O)CC21C (stereo unspecified): 0.245
CN(C)C1C(=O)C(C(N)=O)=C(O)C2(O)C(=O)C3=C(O)c4c(O)ccc(Cl)c4C(O)C3CC12 (stereo unspecified): -1.45

## Task Please give measured z-score of the following entry: N#CC(=C(/N)Sc1ccccc1N)/C(C#N)=C(\N)Sc1ccccc1N
## Result -0.875

## Task Supply z-score value. Item: CCC(=C(c1ccccc1)c1ccc(OCCN(C)C)cc1)c1ccccc1
## Result -0.495

## Task Look up and report measured z-score for this entry: O=S(=O)(c1ccccc1)N(CC(F)(F)F)c1ccc(C(O)(C(F)(F)F)C(F)(F)F)cc1
## Result -0.605

## Task State its z-score for this compound: CC[C@H]1OC(=O)[C@H](C)[C@@H](O[C@H]2C[C@@](C)(OC)[C@@H](O)[C@H](C)O2)[C@H](C)[C@@H](O[C@@H]2O[C@H](C)C[C@H](N(C)C)[C@H]2O)[C@](C)(O)C[C@@H](C)CN(C)[C@H](C)[C@@H](O)[C@]1(C)O
## Result 1.2

* * *

- Protocol description: sensitizers of A549 cells to miR-34 induction, primary screen, imaging, A549 dox-inducible miR-34, nuclei and caspase counts (AID 1347080)
- Condition summary: A549 miR-34 inducible, Hoechst nuclei count, 48 h; stronger effect = lower value; cell number ratio, induced over uninduced
Listed next: entries and their corresponding fold change.
Provide a numeric answer; units are not to be included.

Worked examples, 3 compounds total:
CCCCCCCCCCCCC[N+](C)(C)Cc1ccccc1: 0.898
CC(=O)Nc1ccc(S(=O)(=O)c2ccc(NC(C)=O)cc2)cc1: 0.909
CC(O)CC(C)(C)O (centres undefined): 0.91

## Task Fill in fold change for record COc1c(O)cc2c(c1O)[C@H]1O[C@H](CO)[C@@H](O)[C@H](O)[C@@H]1OC2=O
## Result 0.894

## Task Tell me its fold change given CC(=O)OC1CC2CCC1(C)C2(C)C (centres undefined) as the entry.
## Result 0.913

## Task For the compound CC(=O)Oc1c(C)c(C)c2c(c1C)CCC(C)(CCCC(C)CCCC(C)CCCC(C)C)O2 (centres undefined) , give its measured fold change value.
## Result 0.901

## Task Annotate the compound CO/N=C(/C(=O)N[C@@H]1C(=O)N2C(C(=O)O)=C(COC(C)=O)CS[C@H]12)c1csc(N)n1 with its measured fold change.
## Result 0.913

## Task Return value of fold change for input FC(F)(F)COCC(F)(F)F , no commentary.
## Result 0.879

## Task Check the records and state fold change for COc1nc(N)nc2c1ncn2C1O[C@H](CO)[C@@H](O)[C@@H]1O (some centres undefined)
## Result 0.89
